Target Of Assay: Adenosine receptor A1 (Homo sapiens) (UniProt P30542)
Sequence (P30542 whole entry): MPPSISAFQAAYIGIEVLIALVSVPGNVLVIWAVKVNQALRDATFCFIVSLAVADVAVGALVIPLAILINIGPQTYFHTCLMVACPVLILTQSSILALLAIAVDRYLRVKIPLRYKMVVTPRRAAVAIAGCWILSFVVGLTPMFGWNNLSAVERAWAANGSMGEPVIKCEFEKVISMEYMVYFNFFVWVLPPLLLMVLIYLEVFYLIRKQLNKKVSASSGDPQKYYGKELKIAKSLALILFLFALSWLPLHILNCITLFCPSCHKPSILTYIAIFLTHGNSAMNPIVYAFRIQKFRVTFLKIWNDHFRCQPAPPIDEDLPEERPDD
Procedure Summary: Percent change in cAMP content of CHO (Chinese hamster ovary) cells expressing human Adenosine A1 receptor at 10 uM
Type: functional, cell-based
Endpoint: Change (%)
Report only the number, with the unit % understood.

Which Change value is on record for `Nc1sc2c(c1C(=O)c1cccc3ccccc13)CCN(Cc1ccccc1)C2` ?
19

GET /values?readout=Change&item= `Cc1sc(N)c(C(=O)c2cc(C)c3cc(Cl)ccc3c2)c1C`
-24

State the recorded Change for this entry: `COc1ccc(C(=O)c2c(N)sc(C)c2C)c2ccccc12`
-38

Item under review: `Cc1ccc(C(=O)c2c(N)sc3c2CCCC3)c2ccccc12` . Reported Change?
-45

Recorded Change for `Nc1sc2c(c1C(=O)c1ccc3ccccc3c1)CCN(Cc1ccccc1Cl)C2` , please?
-17

Entry under review: `Nc1sc2c(c1C(=O)c1ccc3c(c1)Cc1ccccc1-3)CCCC2` . Reported Change?
3

Fill in: Change of `Nc1sc2c(c1C(=O)c1ccc(I)c3ccccc13)CCCC2` is ___
-67

// Change lookup, key: `Nc1sc2c(c1C(=O)c1ccc3c(c1)Cc1ccccc1-3)CCC2`
-9

###

Target Of Assay: Adenosine receptor A1 (Homo sapiens)
Procedure Summary: Percent change in cAMP content of CHO (Chinese hamster ovary) cells expressing human Adenosine A1 receptor at 0.1 uM
Assay type: functional, cell-based
Endpoint: Change (%)
Give just the number in %; leave the unit off.

Please look up its Change: `Cc1cc(C(=O)c2c(N)sc3c2CCN(Cc2ccccc2)C3)cc2ccccc12`
2

Give its Change value. Item: Nc1sc2c(c1C(=O)c1ccc3ccccc3c1)CCC(Cc1ccccc1)C2 (stereo unspecified)
10

What value of Change has been recorded for this entry: `Nc1sc2c(c1C(=O)c1ccc3ccccc3c1)CCN(Cc1ccc([N+](=O)[O-])cc1)C2`
12

What value of Change has been reported for the following compound? `Nc1sc2ccccc2c1C(=O)c1cccc2ccccc12`
9

I would be grateful if you could share the reported Change for `Cc1sc(N)c(C(=O)c2cc(C)c3cc(Cl)ccc3c2)c1C` .
-0

Which Change is reported for this compound? `Cc1cc(C(=O)c2c(N)sc3c2CCN(Cc2ccccc2)C3)cc2ccc(Cl)cc12`
1

Given the entry `Nc1sc2c(c1C(=O)c1cccc3ccccc13)CCCC2` , report its measured Change.
-15

Entry under review: `Cc1sc(N)c(C(=O)c2cccc3ccccc23)c1C` . Reported Change?
-3

Item `Nc1sc2c(c1C(=O)c1ccc3ccccc3c1)CCN(Cc1ccccc1)C2` has what recorded Change?
-12

Requested read-out: Change. Entry: `Cc1sc(N)c(C(=O)c2cc(C)c3ccccc3c2)c1C`
-3

Reported Change for `Nc1sc2c(c1C(=O)c1ccc(Br)c3ccccc13)CCC2` : what is it?
19

Please report the recorded Change for `Nc1sc2c(c1C(=O)c1ccc3ccccc3c1)CCN(Cc1ccc(F)cc1)C2` .
-9

Find the recorded Change belonging to `Nc1sc2c(c1C(=O)c1ccc3ccccc3c1)CCN(Cc1ccc(Cl)cc1)C2` and report it.
-8

Fill in: Change of `Nc1sc2c(c1C(=O)c1ccc3c(c1)Cc1ccccc1-3)CCC2` is ___
-15

Entry under review: `Cc1ccc(C(=O)c2c(N)sc3c2CCC3)c2ccccc12` . Reported Change?
4

// query Change value for entry Nc1sc2c(c1C(=O)c1cccc3ccccc13)CCC(Cc1ccccc1)C2 (stereo unspecified)
-7
